Molecular target: histamine H3 receptor (Homo sapiens, UniProt Q9Y5N1)
Construct: expressed in transfected cells; host or cells: CHO K1 cells carrying pSwitch, transfected with pGeneH3, mifepristone-induced; clone 3H3; membranes
Sequence (Q9Y5N1 whole entry): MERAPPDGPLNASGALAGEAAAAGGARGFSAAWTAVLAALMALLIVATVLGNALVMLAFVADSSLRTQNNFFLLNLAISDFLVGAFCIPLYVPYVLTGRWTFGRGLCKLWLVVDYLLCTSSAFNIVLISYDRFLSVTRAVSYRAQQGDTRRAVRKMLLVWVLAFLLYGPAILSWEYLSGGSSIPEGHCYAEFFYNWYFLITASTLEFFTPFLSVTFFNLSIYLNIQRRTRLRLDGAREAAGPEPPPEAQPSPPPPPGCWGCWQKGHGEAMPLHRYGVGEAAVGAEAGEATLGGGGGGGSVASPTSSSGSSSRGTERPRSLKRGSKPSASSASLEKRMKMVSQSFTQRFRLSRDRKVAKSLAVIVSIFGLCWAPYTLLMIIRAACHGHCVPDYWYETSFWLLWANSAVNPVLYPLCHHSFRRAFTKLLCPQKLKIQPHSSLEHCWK
Assay: Histamine H3 functional antagonist assay (method B), [35S]-GTPγS SPA on membranes
Format: biochemical
Conditions: membrane from cultured H3 cells, histamine at EC80, averages of a number of experiments, read-out: functional pKi (fpKi), histamine H3 functional antagonist assay (method B) (converted)
Items are presented alongside their recorded Ki.

So the reported Ki for CNC(=O)c1ccc(N2CCC(CC3CCN(C4CCC4)CC3)CC2)cn1 , on histamine H3 receptor (Homo sapiens, UniProt Q9Y5N1), turned out to be ≤ 1 nM

So the reported Ki for CC(=O)c1ccc(N2CCC(CC3CCN(C4CCC4)CC3)CC2)cn1 , on histamine H3 receptor (Homo sapiens, UniProt Q9Y5N1), turned out to be ≤ 0.316 nM

So the reported Ki for CCN1CCC(CC2CCN(c3ccc(C(C)=O)cc3)CC2)CC1 , on histamine H3 receptor (Homo sapiens, UniProt Q9Y5N1), turned out to be ≤ 1 nM

So the reported Ki for CCN1CCC(CC2CCN(c3ccc(-c4nc(C)no4)cc3)CC2)CC1 , on histamine H3 receptor (Homo sapiens, UniProt Q9Y5N1), turned out to be ≤ 0.316 nM

So the reported Ki for CC(=O)c1ccc(N2CCC(CC3CCN(C(C)C)CC3)CC2)cn1 , on histamine H3 receptor (Homo sapiens, UniProt Q9Y5N1), turned out to be ≤ 1 nM

---

Items are presented alongside their recorded Ki.
Target: histamine H3 receptor (Homo sapiens)
Construct: expressed in transfected cells; host or cells: CHO K1 cells carrying pSwitch, transfected with pGeneH3, mifepristone-induced; clone 3H3; membranes
Experiment: Histamine H3 functional antagonist assay (method A), [35S]-GTPγS SPA on membranes
Type: biochemical
Settings: membrane from cultured H3 cells, histamine at EC80, averages of a number of experiments, read-out: functional pKi (fpKi), histamine H3 functional antagonist assay (method A) (converted)
Protocol: A membrane preparation containing histamine H3 receptors may be prepared in accordance with the following procedures: […] 10-14 days post selection 10 nM Mifepristone (InVitrogen), was added to the culture medium to induce the expression of the receptor. […] Receptor bound antibody was detected by incubation of the cells for 60 minutes on ice with a goat anti rabbit antibody, conjugated with Alexa 488 fluorescence marker (Molecular Probes). […]

The following compounds have reported results that may help.
{"columns": ["chemical string", "Ki"],
 "data": [
  ["CC(C)NC(=O)c1cnc(N2CCC(CC3CCN(C4CCC4)CC3)CC2)cn1", "≤ 1 nM"],
  ["CC(C)NC(=O)c1cnc(N2CCC(CC3CCN(C(C)C)CC3)CC2)cn1", "≤ 10 nM"],
  ["Cc1noc(-c2ccc(N3CCC(CC4CCN(C(C)C)CC4)CC3)cc2)n1", "≤ 0.316 nM"]
]}

Please fill in: Ki reported for CNC(=O)c1ccc(N2CCC(CC3CCN(C(C)C)CC3)CC2)cn1 = ≤ 1 nM

---

Target: histamine H3 receptor (Homo sapiens)
Construct: expressed in transfected cells; host or cells: CHO K1 cells carrying pSwitch, transfected with pGeneH3, mifepristone-induced; clone 3H3; membranes
Assay: Histamine H3 functional antagonist assay (method B), [35S]-GTPγS SPA on membranes
Type: biochemical
Details: membrane from cultured H3 cells, histamine at EC80, averages of a number of experiments, read-out: functional pKi (fpKi), histamine H3 functional antagonist assay (method B) (converted)
value type: Ki

The following compounds have reported results that may help.
{"columns": ["compound", "Ki"],
 "data": [
  ["Cc1noc(-c2ccc(N3CCC(CC4CCN(C(C)C)CC4)CC3)c(F)c2)n1 [Example E14]", "≤ 1 nM"],
  ["CNC(=O)c1ccc(N2CCC(CC3CCN(C(C)C)CC3)CC2)cn1 [Example E12]", "≤ 1 nM"],
  ["CC(C)N1CCC(CC2CCN(c3cnc(C(F)(F)F)nc3)CC2)CC1 [Example E36]", "≤ 10 nM"],
  ["Cc1noc(-c2ccc(N3CCC(CC4CCN(C5CCC5)CC4)CC3)cn2)n1 [Example E17]", "≤ 1 nM"],
  ["CC(=O)c1ccc(N2CCC(CC3CCN(C4CCC4)CC3)CC2)nc1 [Example E29]", "≤ 1 nM"]
]}

As a next step, examine the compound that follows.
Please fill in: Ki reported for CCNC(=O)c1cnc(N2CCC(CC3CCN(C4CCC4)CC3)CC2)cn1 [Example E9] = ≤ 1 nM
